target: Na^+ /H^+ exchanger from rabbit erythrocytes (Oryctolagus cuniculus, UniProt P23791); construct: determine the Na^+ influx into the erythrocytes via Na^+ /H^+ exchange by flame photometry; endogenous in cells; assay: Inhibition of the Na^+ /H^+ exchanger from rabbit erythrocytes (Na^+ influx by flame photometry); details: pH 7.4, 37° C., cholesterol-fed rabbits
Sequence (P23791 whole entry): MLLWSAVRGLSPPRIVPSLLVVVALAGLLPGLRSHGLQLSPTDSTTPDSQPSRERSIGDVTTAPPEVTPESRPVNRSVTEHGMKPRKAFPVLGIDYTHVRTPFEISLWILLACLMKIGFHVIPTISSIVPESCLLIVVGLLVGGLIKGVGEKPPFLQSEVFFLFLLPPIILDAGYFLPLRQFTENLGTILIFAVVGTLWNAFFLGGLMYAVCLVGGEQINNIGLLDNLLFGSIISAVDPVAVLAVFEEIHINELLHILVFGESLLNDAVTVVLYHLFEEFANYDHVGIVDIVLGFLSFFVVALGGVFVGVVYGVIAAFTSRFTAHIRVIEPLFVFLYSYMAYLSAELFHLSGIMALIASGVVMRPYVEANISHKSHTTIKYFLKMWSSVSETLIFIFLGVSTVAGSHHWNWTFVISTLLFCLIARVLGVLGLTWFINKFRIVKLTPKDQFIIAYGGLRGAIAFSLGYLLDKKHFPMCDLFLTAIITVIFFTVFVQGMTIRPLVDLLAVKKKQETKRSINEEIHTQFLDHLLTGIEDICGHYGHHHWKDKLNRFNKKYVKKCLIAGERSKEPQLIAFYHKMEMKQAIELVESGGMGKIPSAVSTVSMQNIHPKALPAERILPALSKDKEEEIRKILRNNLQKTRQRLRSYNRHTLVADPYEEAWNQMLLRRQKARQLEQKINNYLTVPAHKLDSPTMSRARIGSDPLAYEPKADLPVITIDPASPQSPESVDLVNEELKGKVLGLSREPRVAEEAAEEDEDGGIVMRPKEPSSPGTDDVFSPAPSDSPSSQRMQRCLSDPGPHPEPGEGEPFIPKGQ
Counter-ions that a name gives are not always drawn.
reported_endpoint: IC50 (nM)

CC(O)c1ccc(Oc2ccc(C(=O)N=C(N)N)cc2S(C)(=O)=O)cc1 (racemic) [Example 2, hydrochloride] | 400
CC(=O)c1ccc(Oc2ccc(C(=O)N=C(N)N)cc2S(C)(=O)=O)cc1 [Example 1] | 400
